Biological target: T1, PARD3B_1, Q8TEW8
T1 sequence (Q8TEW8 196-299, limits assumed, looked up): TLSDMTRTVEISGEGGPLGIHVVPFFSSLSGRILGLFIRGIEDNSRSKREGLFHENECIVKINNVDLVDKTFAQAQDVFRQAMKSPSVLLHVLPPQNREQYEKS
Experiment: holdup assay
Parameters: key: below the threshold = too weak to quantify, mostly under pKd 3.1 to 4
Conditions: plain residues with an end cap or a label only (N-terminal biotin on a linker: ado-ado)
TEST_READOUT: pKd

Worked cases, answers included:
INSERT INTO measurements (binder, test_readout, value_measured) VALUES
  ('GQNMTVSVVI [PRLHR, P49683]', 'pKd', 4.86),
  ('PSVYSRSQYV [CLDN8, P56748]', 'pKd', 3.58),
  ('PLPPEEESWV [GAS2L2, Q8NHY3]', 'pKd', 3.95),
  ('PGKKPEDSRV [SLCO2B1, O94956]', 'pKd', 'below the threshold');

get_value(item= TKEIPNCTSV [SORCS3, Q9UPU3] , readout=pKd) returns below the threshold

get_value(item= VKQYADVEGF [HNRNPK, P61978;P61978-2] , readout=pKd) returns below the threshold

get_value(item= DYSNLRETDI [ADRA1D, P25100] , readout=pKd) returns below the threshold
